// reported A. castellanii / M. marinum normalised growth, control=1.00, mean for each item listed
System: M. marinum in A. castellanii
Format: cell-based, Mycobacterium marinum
Settings: 10 µM
Quantity measured: A. castellanii / M. marinum normalised growth, control=1.00, mean

Molecule	Result value
CCN(Cc1ccc2c(c1)OCO2)C(=O)CSc1nc(NC)c2ccccc2n1 [GSK1859936A]	1.03
Cc1cc(OCC(=O)Nc2ccccc2)c2cc(Br)ccc2n1 [GW857165X]	0.83
Cc1ccc2nc(C(F)(F)F)c(C(=O)NCc3ccc4c(c3)OCO4)n2c1 [GSK1829732A]	0.56
Cc1ccccc1CN1CCC(O)(c2ccc(Cl)c(C(F)(F)F)c2)CC1 [GSK1985270A]	-0.06
Cn1ccnc1CNCCS(=O)(=O)c1cccc(Nc2ccc(-c3cccc(F)c3)cn2)c1 [GSK1826247A]	1.14
O=C(NNC(=O)c1ccc([N+](=O)[O-])o1)c1ccc2ccccc2c1 [GSK347301A]	0.90
Clc1ccc(Nc2nc(-c3ccccn3)cs2)nc1 [GSK445886A]	1.31
CC(C)OC(=O)COc1ccc(-c2cnc(N(C)CCc3ccncc3)nc2)cc1 [GSK831784A]	0.20
c1csc(Cc2nn3c(-c4[nH]nc5c4CCC5)nnc3s2)c1 [GSK810037A]	1.03
CCc1ccc(S(=O)(=O)Nc2cc(CN3CCN(CCC(C)C)CC3)ccc2C)cc1.O=C(O)C(F)(F)F.O=C(O)C(F)(F)F	1.15
COc1ccc(Nc2ccccc2NC(=O)c2ccc(O)nc2)cc1 [GSK1051703A]	1.00
Clc1ccc(CCNc2cc(-c3ccccc3)nc3ncnn23)cc1 [GSK1955236A]	1.32
Cc1ccc2nc(C(F)(F)F)c(C(=O)NCc3cccs3)n2c1 [GSK1829729A]	0.52
CSc1ccccc1C(=O)Nc1nc(-c2ccccn2)cs1 [GSK921190A]	1.20
Cl.O=C(c1ccco1)N(CCCn1ccnc1)c1nc2c(Cl)cccc2s1 [GSK1788487A]	1.34
Br.CC1(C)N=C(N)N=C(N)N1OCCc1ccc2ccccc2c1 [BRL-8088SA]	2.26
Cc1n[nH]c(C)c1S(=O)(=O)NCc1nc(NCCCc2ccccc2)c2ccccc2n1 [GSK2059310A]	1.06
COc1ccc(CCNC(=O)c2c(C)nc3ccccn23)cc1 [GSK762874A]	0.70
Br.CC(C)(C)c1ccccc1OCCCON1C(=N)N=C(N)NC1(C)C [BRL-7940SA]	2.62
Br.CC1(C)NC(N)=NC(=N)N1OCCCOc1ccc(Cl)cc1Cl [BRL-51091AM]	1.95
CN1CCN(c2ccc(C(F)(F)F)cc2NC(=O)c2ccccn2)CC1 [GSK1750922A]	0.93
CCOc1ccc(-c2nc(CNCCc3ccc(F)cc3)cs2)cc1.O=C(O)C(=O)O [GSK1759150A]	0.82
Br.Cc1ccccc1OCCCON1C(=N)N=C(N)NC1(C)C [BRL-8903SA]	2.27
Cc1ccc2nc(C(F)(F)F)c(C(=O)NCc3cccc(OC(C)C)c3)n2c1 [GSK1829733A]	0.68
O=C(O)C(F)(F)F.c1ccc(C[C@H]2CN(c3nccc(Oc4ccc(-n5ccnc5)cc4)n3)CCN2)cc1 [GSK1519001A]	1.14
Nc1cc(OCc2ccccc2)ccc1Nc1ccccc1 [GV187303X]	1.05
Nc1nc(N)c2c(Sc3ccc4ccccc4c3)cccc2n1 [GW369335X]	0.37
CNc1nc(SC)nc2ccccc12 [GSK353069A]	0.47
Cc1ccc2nc(C(F)(F)F)c(C(=O)NCc3ccc(C)o3)n2c1 [GSK1829728A]	0.78
Cc1ccc2nc(C)c(-c3ccn(Cc4ccccc4)n3)n2c1 [GSK847920A]	1.17
O=C(C=Cc1cccs1)N1CCN(Cc2ccc(Br)s2)CC1 [GSK1744926A]	0.74
O=C(C=Cc1cccs1)N1CCN(Cc2ccc3c(c2)OCO3)CC1 [GW861072X]	0.54
O=C(NCc1ccc(Oc2ccccc2)cc1)c1c(C(F)(F)F)nc2ccccn12 [GSK1829676A]	0.56
Cc1cccc(Cn2ccc(NC(=O)c3ccc4c(c3)OCO4)n2)c1 [GSK798463A]	0.57
